- experimental-system: Angiotensin-converting enzyme (Sus scrofa, UniProt Q4ACT8)
- Sequence (Q4ACT8 whole entry): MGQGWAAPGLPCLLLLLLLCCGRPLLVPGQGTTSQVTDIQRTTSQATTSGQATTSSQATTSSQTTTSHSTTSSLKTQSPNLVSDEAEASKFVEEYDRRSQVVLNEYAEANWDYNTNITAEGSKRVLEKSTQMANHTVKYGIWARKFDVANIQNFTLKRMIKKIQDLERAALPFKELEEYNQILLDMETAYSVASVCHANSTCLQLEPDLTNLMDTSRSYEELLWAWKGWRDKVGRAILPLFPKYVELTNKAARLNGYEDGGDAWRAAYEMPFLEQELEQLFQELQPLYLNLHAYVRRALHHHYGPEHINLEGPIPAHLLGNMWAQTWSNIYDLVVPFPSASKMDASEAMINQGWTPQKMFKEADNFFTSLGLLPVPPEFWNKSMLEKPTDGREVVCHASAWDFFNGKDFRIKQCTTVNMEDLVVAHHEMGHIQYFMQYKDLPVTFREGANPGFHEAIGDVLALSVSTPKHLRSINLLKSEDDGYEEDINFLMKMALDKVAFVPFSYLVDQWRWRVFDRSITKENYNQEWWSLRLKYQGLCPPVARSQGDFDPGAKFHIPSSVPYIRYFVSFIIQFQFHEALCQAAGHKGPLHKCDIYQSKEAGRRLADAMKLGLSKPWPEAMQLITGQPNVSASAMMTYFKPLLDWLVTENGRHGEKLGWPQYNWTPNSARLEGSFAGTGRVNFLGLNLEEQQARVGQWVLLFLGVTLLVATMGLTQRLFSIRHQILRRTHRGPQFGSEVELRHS
quantity-name: IC50 (µM)
Write the number in µM without appending the unit.

Write down the reported IC50 of CC(C)C[C@H](NC(=O)[C@H](Cc1ccccc1)NC(=O)NCNC(=O)CNC(=O)[C@@H](N)Cc1ccc(O)cc1)C(=O)O , test system: Angiotensin-converting enzyme (Sus scrofa, UniProt Q4ACT8).
880
